Source listed as ChEMBL document CHEMBL4028872.

- System Tested: GABA transporter 2 (Mus musculus, UniProt P31651)
- Sequence (P31651 whole entry): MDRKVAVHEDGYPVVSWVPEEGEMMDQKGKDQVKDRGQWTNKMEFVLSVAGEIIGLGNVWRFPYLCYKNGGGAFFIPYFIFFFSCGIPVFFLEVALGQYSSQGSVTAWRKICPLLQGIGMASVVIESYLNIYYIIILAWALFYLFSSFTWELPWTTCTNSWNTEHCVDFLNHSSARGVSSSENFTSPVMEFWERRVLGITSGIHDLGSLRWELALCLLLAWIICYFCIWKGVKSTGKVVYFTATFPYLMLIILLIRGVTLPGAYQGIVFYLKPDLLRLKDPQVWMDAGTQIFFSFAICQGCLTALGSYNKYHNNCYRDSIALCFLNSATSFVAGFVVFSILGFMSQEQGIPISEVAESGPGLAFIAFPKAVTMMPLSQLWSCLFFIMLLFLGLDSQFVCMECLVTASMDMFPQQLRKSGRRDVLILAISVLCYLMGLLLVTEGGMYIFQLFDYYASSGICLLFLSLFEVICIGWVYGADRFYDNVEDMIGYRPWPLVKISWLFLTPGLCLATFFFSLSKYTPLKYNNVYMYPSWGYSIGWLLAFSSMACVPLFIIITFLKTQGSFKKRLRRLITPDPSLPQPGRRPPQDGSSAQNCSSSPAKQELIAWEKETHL
- Assay: Inhibition of mouse BGT1 expressed in HEK293 cells assessed as reduction in [3H]GABA uptake after 3 mins by scintillation counting method
- Assay type: cell-based
- Test Parameters: read-out: IC50
Readout Label: IC50 (µM)

smiles=COc1cccc(CN2CCC(NC(=O)c3ccc(Cl)nc3)CC2)c1 qualifier_sign== observed_result=115
smiles=O=C(NC1CCN(Cc2ccccc2)CC1)c1cccnc1Cl qualifier_sign== observed_result=1650
smiles=O=C(NC1CCN(Cc2ccc(-c3ccccc3)cc2)CC1)c1ccc(Cl)nc1Cl qualifier_sign=> observed_result=300
smiles=COc1cccc(CN2CCC(NC(=O)c3cccnc3)CC2)c1 qualifier_sign=> observed_result=1000
smiles=Clc1ccc(CNC2CCN(Cc3ccccc3)CC2)c(Cl)c1 qualifier_sign== observed_result=112
smiles=O=C(NC1CCN(Cc2ccc3c(c2)OCO3)CC1)c1ccc(Cl)nc1Cl qualifier_sign== observed_result=60
smiles=O=C(NC1CCN(Cc2ccccc2)CC1)c1ccc(Cl)nc1Cl qualifier_sign== observed_result=37
smiles=O=C(NC1CCN(Cc2ccccc2)CC1)c1ccc(Cl)cc1 qualifier_sign== observed_result=77
smiles=COc1cccc(CN2CCC(NC(=O)c3cccnc3Cl)CC2)c1 qualifier_sign== observed_result=1670
smiles=O=C(NC1CCN(Cc2ccccc2)CC1)c1ccc(Cl)cc1Cl qualifier_sign== observed_result=32
smiles=O=C(NC1CCN(Cc2cccc(F)c2)CC1)c1ccc(Cl)cc1Cl qualifier_sign== observed_result=34

====

- System Tested: Sodium- and chloride-dependent betaine transporter (Homo sapiens)
- Sequence (P48065 whole entry): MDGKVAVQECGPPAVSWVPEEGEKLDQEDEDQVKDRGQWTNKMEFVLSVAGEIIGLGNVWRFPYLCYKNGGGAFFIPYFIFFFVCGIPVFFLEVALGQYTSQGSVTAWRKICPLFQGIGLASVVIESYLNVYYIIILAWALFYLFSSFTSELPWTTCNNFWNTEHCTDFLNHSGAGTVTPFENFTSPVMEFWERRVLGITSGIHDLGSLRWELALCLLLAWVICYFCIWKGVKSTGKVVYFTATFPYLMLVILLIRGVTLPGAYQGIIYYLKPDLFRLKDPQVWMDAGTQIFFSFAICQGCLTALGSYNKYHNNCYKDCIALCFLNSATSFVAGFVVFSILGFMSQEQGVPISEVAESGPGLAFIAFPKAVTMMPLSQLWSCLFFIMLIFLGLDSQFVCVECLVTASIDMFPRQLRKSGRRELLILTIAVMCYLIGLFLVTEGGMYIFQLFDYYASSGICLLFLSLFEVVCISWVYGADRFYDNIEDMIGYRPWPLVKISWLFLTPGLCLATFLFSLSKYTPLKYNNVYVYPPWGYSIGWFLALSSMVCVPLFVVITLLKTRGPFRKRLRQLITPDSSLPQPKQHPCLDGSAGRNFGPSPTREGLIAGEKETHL
- Assay: Inhibition of human BGT1 expresses in tsA201 cells assessed as reduction in [3H]GABA uptake after 3 mins by scintillation counting method
- Format: cell-based
- Test Parameters: read-out: IC50
pIC50: −log10 of the molar value.
We begin with a simple list: items and their reported pIC50.
Readout Label: pIC50

smiles=COC(=O)c1ccc(CN2CCC(NC(=O)c3ccc(Cl)cc3Cl)CC2)cc1 observed_result="< 4.00"
smiles=O=C(CN1CCC(NC(=O)c2ccc(Cl)cc2Cl)CC1)c1ccccc1 observed_result="< 4.00"
smiles=CCOP(=O)(CCCN1CCC(NC(=O)c2ccc(Cl)cc2Cl)CC1)OCC observed_result="< 3.00"
smiles=O=C(NC1CCN(Cc2ccccc2)CC1)c1ccc(F)cc1 observed_result=4.00
smiles=N#Cc1ccccc1CN1CCC(NC(=O)c2ccc(Cl)cc2Cl)CC1 observed_result="< 4.30"
smiles=O=C(NC1CCNCC1)c1ccc(Cl)cc1Cl observed_result="< 3.00"
smiles=N#CCCCN1CCC(NC(=O)c2ccc(Cl)cc2Cl)CC1 observed_result="< 3.00"
smiles=O=C(NC1CCN(Cc2ccccc2)CC1)c1ccc(Cl)nc1Cl observed_result=4.36
smiles=CN1CCC(NC(=O)c2ccc(Cl)cc2Cl)CC1 observed_result="< 3.00"
smiles=CC(C)C(=O)NC1CCN(Cc2ccccc2)CC1 observed_result="< 3.00"
smiles=O=C(NC1CCN(Cc2ccccc2[N+](=O)[O-])CC1)c1ccc(Cl)cc1Cl observed_result="< 4.00"
smiles=CCN1CCC(NC(=O)c2ccc(Cl)cc2Cl)CC1 observed_result="< 3.00"
smiles=O=C(O)CN1CCC(NC(=O)c2ccc(Cl)cc2Cl)CC1 observed_result="< 3.00"
smiles=O=C(NC1CCN(Cc2ccc3ccccc3n2)CC1)c1ccc(Cl)cc1Cl observed_result="< 4.30"
smiles=CCCN1CCC(NC(=O)c2ccc(Cl)cc2Cl)CC1 observed_result="< 3.00"
smiles=CCOc1ccccc1C(=O)NC1CCN(Cc2ccccc2)CC1 observed_result=3.74
smiles=CC(C)(C)OC(=O)CN1CCC(NC(=O)c2ccc(Cl)cc2Cl)CC1 observed_result="< 3.00"
smiles=COc1cccc(C(=O)NC2CCN(Cc3ccccc3)CC2)c1OC observed_result=4.04
smiles=O=C(NC1CCN(Cc2ccc([N+](=O)[O-])cc2)CC1)c1ccc(Cl)cc1Cl observed_result="< 4.00"
smiles=O=C(NC1CCN(Cc2ccccc2)CC1)c1ccc(Cl)cc1Cl observed_result=4.74
smiles=C#CCN1CCC(NC(=O)c2ccc(Cl)cc2Cl)CC1 observed_result="< 3.00"
smiles=O=C(NC1CCN(Cc2ccc(I)cc2)CC1)c1ccc(Cl)cc1Cl observed_result="< 4.00"
smiles=O=C(NC1CCN(Cc2ccncc2)CC1)c1ccc(Cl)cc1Cl observed_result="< 3.00"
smiles=O=C(NC1CCN(Cc2cccnc2)CC1)c1ccc(Cl)cc1Cl observed_result="< 3.00"
